assay_notes: in vitro
Assay type: in vitro ADME
cond: human, Caco-2
measured_endpoint: Papp B→A at 90 min (×10⁻⁶ cm/s)
Reply numerically in ×10⁻⁶ cm/s, unit not repeated.

- N#C[C@@]1(c2ccc3c(N)ncnn23)O[C@H](COC(=O)CC2(c3ccccc3)CCOCC2)[C@@H](O)[C@H]1O [Compound 274]: 12
- CCCCC(=O)Nc1ncnn2c([C@]3(C#N)O[C@H](COC(=O)[C@@H](N)C(C)C)[C@@H](O)[C@H]3O)ccc12 [Compound 341]: 2.3
- CS(=O)(=O)N1CCC(CC(=O)OC[C@H]2O[C@@](C#N)(c3ccc4c(N)ncnn34)[C@H](O)[C@@H]2O)CC1 [Compound 268]: 1.8
- CC(=O)OC[C@H]1O[C@@](C#N)(c2ccc3c(NC(=O)c4ccccc4)ncnn23)[C@H](O)[C@@H]1O [Compound 103]: 12
- CC(C)[C@H](N)C(=O)OC[C@H]1O[C@@](C#N)(c2ccc3c(NC(=O)[C@@H](N)Cc4ccc(F)cc4)ncnn23)[C@H](O)[C@@H]1O [Compound 94]: 0.64

Could you now look at the following compound, please?
Recorded result, CC(C)(C)[C@H](N)C(=O)O[C@H]1[C@@H](O)[C@](C#N)(c2ccc3c(N)ncnn23)O[C@@H]1COC(=O)CC1CCCCC1 [Compound 397] , Papp B→A at 90 min: 7.3
